Can you tell me TGI for the items I'm about to list?
tested on: OVCAR-4 ovarian; assay: NCI tumour cell line growth inhibition, 48 h

Worked cases, answers included:
Task item: // lookup TGI | system=OVCAR-4 ovarian | key= CNC(=S)N1CCN(C(C)=O)C1=S
Reply: 32.1 µM

Task item: Ok, now COc1ccc2c(c1OC)C(=O)N1C2=Cc2c(cc3c(c2OC)OCO3)CC1N(C)C (stereo unspecified)
Reply: > 100 µM

Task item: Ok, now CC/C=N\N1C(N)=C(C#N)C(C#N)(C#N)C1CC (stereo unspecified)
Reply: > 100 µM

Task item: Ok, now O=[N+]([O-])c1ccc(-c2csc(=[N+]3CCCCC3)s2)cc1
Reply: 81.4 µM

Task item: Ok, now C/C(=C\CSCC(N)C(=O)O)CC/C=C(\C)CNc1ccccc1 (stereo unspecified)
Reply: > 100 µM

// switching to the query compound
Task item: // lookup TGI | system=OVCAR-4 ovarian | key= CCn1c(-c2nonc2N)nc2c(N3CCCC3)nccc21
Reply: > 25 µM

###

test system: HCT-116 colon; experiment: NCI tumour cell line growth inhibition, 48 h
Can you tell me TGI for the items I'm about to list?

Task item: // lookup TGI | system=HCT-116 colon | key= Cc1cc(-c2ccccc2)nc2oc(=O)n(C)c12
Reply: > 100 µM

Give measured TGI for every item shown.
1. C[CH2][Sn]([CH2]C)([O]C(=O)c1ccc(F)cc1)[O]C(=O)c1ccc(F)cc1
2. CC(=O)[O-].N.N.N.N.[Co+3].[O-][Cl+3]([O-])([O-])[O-].[OH3+]
3. O=C1c2cc3c(cc2-c2c1c1ccc(Cl)cc1c(=O)n2CCCn1ccnc1)OCO3
4. CCN(Cc1c(F)cccc1Cl)c1ccc(CO)c(Cl)c1
5. N#Cc1cccc(C2C3=C(COC3=O)N(CCO)c3cc4c(cc32)OCO4)c1 (stereo not given)

Reply:
1: > 55.8 µM; 2: > 100 µM; 3: 11 µM; 4: 12.1 µM; 5: > 50 µM

Give measured TGI for every item shown.
1. CC(=O)/C(=N\Nc1ccc(Cl)cc1)C(C)=Nc1ccc(C)cc1
2. CCOC(=O)C(NC(=O)c1cccc(Cl)c1)(Nc1cccc(C)c1)C(F)(F)F (stereo not given)
3. CCC(CO)Nc1nc2c(c(=O)n(C)c(=O)n2C)n1CCO (stereo not given)
4. Nc1c2ccccc2nc2c(C(=O)Nc3ccc(S(N)(=O)=O)cc3)cccc12

Reply:
1. > 100 µM
2. 33.4 µM
3. > 100 µM
4. > 100 µM

###

system: MALME-3M melanoma; assay: NCI tumour cell line growth inhibition, 48 h
Can you tell me GI50 for the items I'm about to list?

Task item: Using the record for COC(=O)[C@H](Cc1cn(C)cn1)NC(=O)[C@H](Cc1ccccc1)NC(=O)Nc1cc(C(F)(F)F)cc(C(F)(F)F)c1 , report its GI50.
Reply: 18.2 µM

Task item: Ok, now CN1CCN(CCCOc2cc(O)c3c(=O)cc(-c4ccccc4)oc3c2)CC1
Reply: 20.8 µM

Task item: Ok, now O=C1NC(c2ccccc2)C2(C(=O)O)CN(C3CC3)c3cc(N4CCNCC4)c(F)cc3C2N1 (centres undefined)
Reply: > 100 µM

Give measured GI50 for every item shown.
1. O=C([O-])CC(=O)[O-].[NH-][C@@H]1CCCC[C@H]1[NH-].[Pt+4]
2. C[N+](C)=c1ccc2nc3c(cc(NCCCNc4cc5oc6cc(=[N+](C)C)ccc-6nc5c5ccccc45)c4ccccc43)oc-2c1
3. COc1cc(CNc2oc(-c3ccccc3)c(-c3ccccc3)c2C#N)cc(CN2CCN(C)CC2)c1O
4. CCn1c(-c2nonc2N)nc2c(N3CCCC3)nccc21
5. O=C(/C=C/C12c3ccccc3C(c3ccccc31)C1C(=O)NC(=O)C12)c1ccccc1 (centres undefined)
6. COc1cc2nccc(Oc3ccc(NC(=O)c4cn(C(C)C)c(=O)n(-c5ccc(F)cc5)c4=O)cc3F)c2cc1OC

Reply:
6.4 µM
2.05 µM
1.85 µM
> 25 µM
1.64 µM
2.39 µM
